assayed.target: AURKA (MV4-11^AURKA-HiBiT cells) (Homo sapiens, UniProt O14965)
Construct: expressed in transfected cells; host or cells: MV4-11, lentiviral transduction
Sequence (O14965 1-403): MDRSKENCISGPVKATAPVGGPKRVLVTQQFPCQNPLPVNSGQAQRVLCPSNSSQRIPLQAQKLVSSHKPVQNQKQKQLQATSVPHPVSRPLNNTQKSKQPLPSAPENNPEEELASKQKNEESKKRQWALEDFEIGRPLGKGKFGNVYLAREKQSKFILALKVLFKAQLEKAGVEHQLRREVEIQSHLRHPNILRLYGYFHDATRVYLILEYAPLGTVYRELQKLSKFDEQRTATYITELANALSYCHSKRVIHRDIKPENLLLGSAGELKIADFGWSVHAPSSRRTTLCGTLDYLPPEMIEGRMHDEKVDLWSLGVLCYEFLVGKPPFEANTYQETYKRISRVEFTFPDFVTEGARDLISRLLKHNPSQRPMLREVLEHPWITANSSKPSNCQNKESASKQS
assay.details: HiBiT assay, AURKA degradation
Type: cell-based
measurement.conditions: 6 h treatment, MV4-11^AURKA-HiBiT cells; read-out: DC50 (half-maximal degradation concentration) AURKA
observation.type: DC50 (nM)

Below: 5 compounds and their reported DC50.
Task: Dear colleague, I am looking for the recorded DC50 of the following compound: CC(C)S(=O)(=O)c1ccccc1Nc1nc(Nc2ccc(N3CCN(C(=O)CCCC(=O)Nc4cccc5c4C(=O)N(C4CCC(=O)NC4=O)C5=O)CC3)cc2)nc2[nH]cnc12 (centres unmarked) [Compound 14]
Output: 46

Task: Dear colleague, I am looking for the recorded DC50 of the following compound: COc1cc(N2CCNCC2)ccc1Nc1nc(Nc2ccccc2S(=O)(=O)C(C)C)c2nc[nH]c2n1 [SF2]
Output: 1930

Task: Dear colleague, I am looking for the recorded DC50 of the following compound: COc1cc(N2CCN(C(=O)CNC(=O)CCCC(=O)Nc3cccc4c3C(=O)N(C3CCC(=O)NC3=O)C4=O)CC2)ccc1Nc1nc(Nc2ccccc2S(=O)(=O)C(C)C)c2nc[nH]c2n1 (centres unmarked) [Compound 21]
Output: 56

Task: Dear colleague, I am looking for the recorded DC50 of the following compound: Cc1ncsc1-c1ccc(CNC(=O)[C@@H]2C[C@@H](O)CN2C(=O)[C@@H](NC(=O)COCCOCC(=O)N2CCN(c3ccc(Nc4nc(Nc5ccccc5S(=O)(=O)C(C)C)c5nc[nH]c5n4)cc3)CC2)C(C)(C)C)cc1 [Compound 49]
Output: 814

Task: Dear colleague, I am looking for the recorded DC50 of the following compound: COc1cc(N2CCC(O)CC2)ccc1Nc1nc(Nc2ccccc2S(=O)(=O)C(C)C)c2nc[nH]c2n1 [MPS1-IN-3, reference compound]
Output: 998

I: O=C1CCC(N2C(=O)c3cccc(NC(=O)CCCC(=O)N4CCN(c5ccc(Nc6nc(NC7CCCCC7)c7nc[nH]c7n6)cc5)CC4)c3C2=O)C(=O)N1 (centres unmarked) [Compound 13]
II: CC(C)S(=O)(=O)c1ccccc1Nc1nc(Nc2ccc(N3CCN(CCCC(=O)Nc4cccc5c4C(=O)N(C4CCC(=O)NC4=O)C5=O)CC3)cc2)nc2[nH]cnc12 (centres unmarked) [Compound 27]
III: CC(C)S(=O)(=O)c1ccccc1Nc1nc(Nc2ccc(N3CCN(C(=O)CCC(=O)NCCNc4cccc5c4C(=O)N(C4CCC(=O)NC4=O)C5=O)CC3)cc2)nc2[nH]cnc12 (centres unmarked) [Compound 30]
IV: Cc1ncsc1-c1ccc(CNC(=O)[C@@H]2C[C@@H](O)CN2C(=O)[C@@H](NC(=O)CCCC(=O)N2CCN(c3ccc(Nc4nc(Nc5ccccc5S(=O)(=O)C(C)C)c5nc[nH]c5n4)cc3)CC2)C(C)(C)C)cc1 [Compound 44]
V: CN1C(=O)CCC(N2C(=O)c3cccc(NC(=O)CCCC(=O)NCC(=O)N4CCN(c5ccc(Nc6nc(NC7CCCCC7)c7nc[nH]c7n6)cc5)CC4)c3C2=O)C1=O (centres unmarked) [Compound 23]
Task: # rank_down: sort by DC50, max first List the labels, following the order given in the request.
Output: IV, V, I, III, II
(IV: 1700 nM, V: 299 nM, I: 94 nM, III: 17 nM, II: 4.8 nM)

I: Cc1ncsc1-c1ccc(CNC(=O)[C@@H]2C[C@@H](O)CN2C(=O)[C@@H](NC(=O)CCC(=O)NCCNC(=O)CCC(=O)N2CCN(c3ccc(Nc4nc(NC5CCCCC5)c5nc[nH]c5n4)cc3)CC2)C(C)(C)C)cc1 [Compound 55]
II: CC(C)S(=O)(=O)c1ccccc1Nc1nc(Nc2ccc(N3CCNCC3)cc2)nc2[nH]cnc12 [SF1]
III: Cc1ncsc1-c1ccc(CNC(=O)[C@@H]2C[C@@H](O)CN2C(=O)[C@@H](NC(=O)CCCC(=O)NCC(=O)N2CCN(c3ccc(Nc4nc(Nc5ccccc5S(=O)(=O)C(C)C)c5nc[nH]c5n4)cc3)CC2)C(C)(C)C)cc1 [Compound 46]
IV: CC(C)S(=O)(=O)c1ccccc1Nc1nc(Nc2ccc(N3CCN(C(=O)CCC(=O)Nc4cccc5c4C(=O)N(C4CCC(=O)NC4=O)C5=O)CC3)cc2)nc2[nH]cnc12 (centres unmarked) [Compound 15]
V: c1nc2c(NC3CCCCC3)nc(Nc3ccc(N4CCNCC4)cc3)nc2[nH]1 [azareversine, reference compound]
Task: # rank_down: sort by DC50, max first List the labels, following the order given in the request.
Output: I, III, II, V, IV

1: COc1cc(N2CCC(OCC(=O)N3CCN(c4cccc5c4C(=O)N(C4CCC(=O)NC4=O)C5=O)CC3)CC2)ccc1Nc1nc(Nc2ccccc2S(=O)(=O)C(C)C)c2nc[nH]c2n1 (centres unmarked) [Compound 40]
2: Cc1ncsc1-c1ccc(CNC(=O)[C@@H]2C[C@@H](O)CN2C(=O)[C@@H](NC(=O)CCC(=O)NCCCNC(=O)CCC(=O)N2CCN(c3ccc(Nc4nc(NC5CCCCC5)c5nc[nH]c5n4)cc3)CC2)C(C)(C)C)cc1 [Compound 56]
3: CC(C)S(=O)(=O)c1ccccc1Nc1nc(Nc2ccc(N3CCN(CC(=O)Nc4cccc5c4C(=O)N(C4CCC(=O)NC4=O)C5=O)CC3)cc2)nc2[nH]cnc12 (centres unmarked) [Compound 26]
4: CC(C)S(=O)(=O)c1ccccc1Nc1nc(Nc2ccc(N3CCN(C(=O)COCCOCC(=O)Nc4cccc5c4C(=O)N(C4CCC(=O)NC4=O)C5=O)CC3)cc2)nc2[nH]cnc12 (centres unmarked) [Compound 18]
Task: Ascending by DC50, please: list the compounds accordingly. List the labels, following the order given in the request.
Output: 3, 1, 4, 2
(3: 119 nM, 1: 282 nM, 4: 1260 nM, 2: 6500 nM)

I: O=C(CCCC(=O)Nc1cccc2c1C(=O)N(C1CCC(=O)NC1=O)C2=O)NCC(=O)N1CCN(c2ccc(Nc3nc(NC4CCCCC4)c4nc[nH]c4n3)cc2)CC1 (centres unmarked) [Compound 19]
II: O=C1CCC(N2C(=O)c3cccc(NC(=O)COCCOCC(=O)N4CCN(c5ccc(Nc6nc(NC7CCCCC7)c7nc[nH]c7n6)cc5)CC4)c3C2=O)C(=O)N1 (centres unmarked) [Compound 17]
Task: Would you mind telling me which has the lower recorded DC50 between I and II ? Lab log: write the label of the selected item as the result.
Output: I
(I: 109 nM, II: 239 nM)

I: Cc1ncsc1-c1ccc(CNC(=O)[C@@H]2C[C@@H](O)CN2C(=O)[C@@H](NC(=O)CCCC(=O)N2CCN(c3ccc(Nc4nc(NC5CCCCC5)c5nc[nH]c5n4)cc3)CC2)C(C)(C)C)cc1 [Compound 43]
II: CC(C)S(=O)(=O)c1ccccc1Nc1nc(Nc2ccc(N3CCN(CCCCC(=O)Nc4cccc5c4C(=O)N(C4CCC(=O)NC4=O)C5=O)CC3)cc2)nc2[nH]cnc12 (centres unmarked) [Compound 28]
Task: Would you mind telling me which has the lower recorded DC50 between I and II ? Lab log: write the label of the selected item as the result.
Output: II
